Test system: larvae of the mustard beetle (Phaedon cochleariae)
Assay: Phaedon cochleariae spray test (PHAECO)
Format: in vivo
Details: Phaedon cochleariae, 168 h; PHAECO, 20 g/ha, 7 dat; read-out: % Activity
Description: Phaedon Cochleariae—Spray Test (PHAECO) • Solvents: 78.0 parts by weight of acetone • 1.5 parts by weight of dimethylformamide • Emulsifier: 0.5 part by weight of alkylaryl polyglycol ether […] After the desired period of time, the effect in % is determined 100% means that all of the beetle larvae have been killed; 0% means that none of the beetle larvae have been killed.
measurementKind: inhibition at 20 g/ha (%)
Number in %, nothing else.

Endpoint output: inhibition at 20 g/ha of CCC(=O)NCc1cc(NC(=O)c2c(C(F)(F)F)c(C(F)(F)C(F)(F)F)nn2C)ccc1F . Value?
100

Endpoint output: inhibition at 20 g/ha of Cn1nc(C(F)(F)C(F)(F)F)c(Br)c1C(=O)Nc1ccc(Cl)c(C(=O)NC2CC2)c1 [Example Ik-26, reference compound] . Value?
0

Endpoint output: inhibition at 20 g/ha of CC(C)NC(=O)c1cc(NC(=O)c2c(C(F)(F)F)c(C(F)(F)C(F)(F)F)nn2C)ccc1F [Example Ik-75, reference compound] . Value?
0

Endpoint output: inhibition at 20 g/ha of CCC(=O)NCc1cc(N(CC)C(=O)c2c(C(F)(F)F)c(C(F)(F)C(F)(F)F)nn2C)ccc1F . Value?
100

Endpoint output: inhibition at 20 g/ha of Cn1nc(C(F)(F)C(F)(F)F)c(Br)c1C(=O)Nc1ccc(F)c(CNC(=O)C2CC2)c1 . Value?
100
